We begin with a simple list: items and their reported 8OG:A repair function score.
B1: library; numbered along this chain (parent)
chain: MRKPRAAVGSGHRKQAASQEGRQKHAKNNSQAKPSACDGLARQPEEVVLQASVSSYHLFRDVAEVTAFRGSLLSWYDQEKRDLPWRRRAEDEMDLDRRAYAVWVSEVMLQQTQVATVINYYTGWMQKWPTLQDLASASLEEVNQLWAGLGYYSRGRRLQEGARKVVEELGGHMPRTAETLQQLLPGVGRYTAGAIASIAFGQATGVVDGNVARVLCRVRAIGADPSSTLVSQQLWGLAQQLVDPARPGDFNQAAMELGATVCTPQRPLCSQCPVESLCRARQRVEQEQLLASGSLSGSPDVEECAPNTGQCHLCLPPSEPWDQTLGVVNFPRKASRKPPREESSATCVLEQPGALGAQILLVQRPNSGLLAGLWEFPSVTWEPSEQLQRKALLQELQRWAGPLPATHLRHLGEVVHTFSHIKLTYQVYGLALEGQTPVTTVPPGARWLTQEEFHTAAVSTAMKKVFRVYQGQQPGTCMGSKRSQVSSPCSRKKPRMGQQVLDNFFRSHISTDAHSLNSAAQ

variants of: B1; test: 8OG:A repair function score (normalized; synonymous = 0, nonsense = -1) (normalized log-likelihood score); higher = more repair activity (WT-like); details: with 8OG:A DNA repair reporter (GFP) in HEK-293 MUTYH KO cells;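 also: cells sorted at 72 h after reporter transfection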
measure: 8OG:A repair function score

# mutationId, result
records = [
    ("R283K", -0.0478),
    ("R246Q", -0.476),
    ("R189C", -0.258),
    ("E256F", -0.679),
]
